I'd be grateful if you could share measured pIC50 for these entries.
Test system: p-p70 S6 Kinase (Thr389) in MCF-7 cells
experiment.summary: AlphaLISA Ultra pS6K1 assay
Type: cell-based
condition.info: Homo sapiens, 1.5 h; MCF7 cells, 90 min
pIC50: −log10 of the molar value.

Input line: Observed pIC50 on p-p70 S6 Kinase (Thr389) in MCF-7 cells for CO[C@@H]1/C(C)=C/[C@@H](C)C(=O)C[C@@H]([C@H](C)C[C@@H]2CC[C@@H](OP(C)(C)=O)[C@H](OC)C2)OC(=O)[C@@H]2CCCCN2C(=O)C(=O)[C@]2(O)O[C@@H](CC[C@H]2C)CC(OCCOC2COC2)/C(C)=C/C=C/C=C/[C@@H](C)C[C@@H](C)C(=O)[C@@H]1OC (stereo partly shown) , please.
Output line: ≤ 6.00

Input line: # returns recorded pIC50 (system: p-p70 S6 Kinase (Thr389) in MCF-7 cells) for `COCCOCCO[C@H]1C[C@@H]2CC[C@@H](C)[C@@](O)(O2)C(=O)C(=O)N2CCCC[C@H]2C(=O)O[C@H]([C@H](C)C[C@@H]2CC[C@@H](OC)[C@H](OC)C2)CC(=O)[C@H](C)/C=C(\C)[C@@H](OC)[C@@H](OC)C(=O)[C@H](C)C[C@H](C)/C=C/C=C/C=C/1C`
Output line: 7.00 to 8.00

Input line: Can you look up pIC50 on p-p70 S6 Kinase (Thr389) in MCF-7 cells for CO[C@@H]1/C(C)=C/[C@@H](C)C(=O)C[C@@H]([C@H](C)C[C@@H]2CC[C@@H](O)[C@H](OC)C2)OC(=O)[C@@H]2CCCCN2C(=O)C(=O)[C@]2(O)O[C@@H](CC[C@H]2C)CC(OCCOC2COC2)/C(C)=C/C=C/C=C/[C@@H](C)C[C@@H](C)C(=O)[C@@H]1OC (stereo partly shown) ?
Output line: 7.00 to 8.00

Input line: Requested read-out pIC50, target or system p-p70 S6 Kinase (Thr389) in MCF-7 cells, entry `COCCS(=O)(=O)CCO[C@H]1C[C@@H]2CC[C@@H](C)[C@@](O)(O2)C(=O)C(=O)N2CCCC[C@H]2C(=O)O[C@H]([C@H](C)C[C@@H]2CC[C@@H](OC)[C@H](OC)C2)CC(=O)[C@H](C)/C=C(\C)[C@@H](OC)[C@@H](OC)C(=O)[C@H](C)C[C@H](C)/C=C/C=C/C=C/1C`
Output line: 7.00 to 8.00

Input line: GET /values?readout=pIC50&system=p-p70 S6 Kinase (Thr389) in MCF-7 cells&item= `COCCO[C@@H]1CC[C@@H](C[C@@H](C)[C@@H]2CC(=O)[C@H](C)/C=C(\C)[C@@H](O)[C@@H](OC)C(=O)[C@H](C)C[C@H](C)/C=C/C=C/C=C(\C)[C@H](OC[C@H]3COCCO3)C[C@@H]3CC[C@@H](C)[C@@](O)(O3)C(=O)C(=O)N3CCCC[C@H]3C(=O)O2)C[C@H]1OC`
Output line: 8.00 to 9.00

Input line: Provide the documented pIC50 with p-p70 S6 Kinase (Thr389) in MCF-7 cells as the system for COCCO[C@@H]1CC[C@@H](C[C@@H](C)[C@@H]2CC(=O)[C@H](C)/C=C(\C)[C@@H](OC)[C@@H](OC)C(=O)[C@H](C)C[C@H](C)/C=C/C=C/C=C(\C)C(OCCOCCOC3COC3)C[C@@H]3CC[C@@H](C)[C@@](O)(O3)C(=O)C(=O)N3CCCC[C@H]3C(=O)O2)C[C@H]1OC (stereo partly shown)
Output line: 7.00 to 8.00

Input line: Reported pIC50 for p-p70 S6 Kinase (Thr389) in MCF-7 cells, given CO[C@@H]1C[C@H](C[C@@H](C)[C@@H]2CC(=O)[C@H](C)/C=C(\C)[C@@H](O)[C@@H](OC)C(=O)[C@H](C)C[C@H](C)/C=C/C=C/C=C(\C)C(OCCOC3CCOCC3)C[C@@H]3CC[C@@H](C)[C@@](O)(O3)C(=O)C(=O)N3CCCC[C@H]3C(=O)O2)CC[C@H]1OP(C)(C)=O (stereo partly shown) ?
Output line: > 9.00
